Experiment: Multi-component pharmacokinetic study of GQD, GQD-GC and single herb extracts in rats (plasma, LC/MS/MS)
Format: in vivo, Sprague-Dawley rats
Conditions: male, Sprague-Dawley, rat, in vivo, po, 16.5 g/kg
Below is a list of entries, each paired with its recorded half-life value.
Record the value in h, omitting the unit from your answer.

Below are worked cases with known answers.
structure.notation	scale.unit	half-life
c1c2c(cc3c1OCO3)-c1cc3ccc4c(c3c[n+]1CC2)OCO4	h	3.87
O=c1c(-c2ccc(O)cc2)coc2cc(O)ccc12	h	4.28

Turning to the following compound.
Look up and state reported half-life for COc1cc2c(cc1OC)-c1cc3ccc(OC)c(OC)c3c[n+]1CC2
3.03
